# CONDITION SET: in acetone, 308 K
RESULT TYPE: solubility (mole fraction)
I only need the number, thanks.

Query block: Bench note: what solubility (mole fraction) did Cc1cccc(Nc2ccccc2C(=O)O)c1C show?
Result block: 0.0065

* * *

# CONDITION SET: in n-heptane, 308 K
RESULT TYPE: solubility (mole fraction)

Query block: Bench note: what solubility (mole fraction) did Cc1cccc(Nc2ccccc2C(=O)O)c1C show?
Result block: 0.0015

* * *

# CONDITION SET: in ethanol, 303 K
RESULT TYPE: solubility (mole fraction)
I only need the number, thanks.

Query block: Bench note: what solubility (mole fraction) did Cc1cccc(Nc2ccccc2C(=O)O)c1C show?
Result block: 0.002

* * *

# CONDITION SET: in DMAc, 323 K
RESULT TYPE: solubility (mole fraction)
I only need the number, thanks.

Query block: Bench note: what solubility (mole fraction) did Cc1cccc(Nc2ccccc2C(=O)O)c1C show?
Result block: 0.19

* * *

# CONDITION SET: in DMF, 303 K
RESULT TYPE: solubility (mole fraction)
I only need the number, thanks.

Query block: Bench note: what solubility (mole fraction) did Cc1cccc(Nc2ccccc2C(=O)O)c1C show?
Result block: 0.0208

* * *

# CONDITION SET: in DMF, 298 K
RESULT TYPE: solubility (mole fraction)

Query block: Bench note: what solubility (mole fraction) did Cc1cccc(Nc2ccccc2C(=O)O)c1C show?
Result block: 0.0171

* * *

# CONDITION SET: in n-hexane, 303 K
RESULT TYPE: solubility (mole fraction)

Query block: Bench note: what solubility (mole fraction) did Cc1cccc(Nc2ccccc2C(=O)O)c1C show?
Result block: 0.0014

* * *

# CONDITION SET: in ethyl acetate, 298 K
RESULT TYPE: solubility (mole fraction)
I only need the number, thanks.

Query block: Bench note: what solubility (mole fraction) did Cc1cccc(Nc2ccccc2C(=O)O)c1C show?
Result block: 0.0039

* * *

# CONDITION SET: in ethanol, 313 K
RESULT TYPE: solubility (mole fraction)
I only need the number, thanks.

Query block: Bench note: what solubility (mole fraction) did Cc1cccc(Nc2ccccc2C(=O)O)c1C show?
Result block: 0.0032

* * *

# CONDITION SET: in water, 318 K
RESULT TYPE: solubility (mole fraction)
I only need the number, thanks.

Query block: Bench note: what solubility (mole fraction) did Cc1cccc(Nc2ccccc2C(=O)O)c1C show?
Result block: 3e-05

* * *

# CONDITION SET: in n-heptane, 318 K
RESULT TYPE: solubility (mole fraction)
I only need the number, thanks.

Query block: Bench note: what solubility (mole fraction) did Cc1cccc(Nc2ccccc2C(=O)O)c1C show?
Result block: 0.0018

* * *

# CONDITION SET: in isopropanol, 308 K
RESULT TYPE: solubility (mole fraction)
I only need the number, thanks.

Query block: Bench note: what solubility (mole fraction) did Cc1cccc(Nc2ccccc2C(=O)O)c1C show?
Result block: 0.0026

* * *

# CONDITION SET: in ethyl acetate, 303 K
RESULT TYPE: solubility (mole fraction)
I only need the number, thanks.

Query block: Bench note: what solubility (mole fraction) did Cc1cccc(Nc2ccccc2C(=O)O)c1C show?
Result block: 0.0045

* * *

# CONDITION SET: in n-hexane, 323 K
RESULT TYPE: solubility (mole fraction)
I only need the number, thanks.

Query block: Bench note: what solubility (mole fraction) did Cc1cccc(Nc2ccccc2C(=O)O)c1C show?
Result block: 0.0024
